assay: protein stability index of a GFP-peptide fusion (yeast GPS) (PSI 1-4); higher = more stable; sorted into four equal gates, so the index is relative within each strain; details: san1∆
Overview of reported protein stability index across a group of sequences:
Returns: the value as a bare number; no unit string appended.

Worked set:
{"Seq": "HCIDYLRKNKLGYARFI [SMC4]", "protein stability index": 1.14}
{"Seq": "AGKADTSIRLEGDELEN [SRB4]", "protein stability index": 2.91}
{"Seq": "SKSNLIHNYDSKKSTIT [RGR1]", "protein stability index": 3.05}
{"Seq": "GRSNEIVKTTTKQRLDA [PRP8]", "protein stability index": 2.63}
{"Seq": "YKQAMNETSEQLVPIRL [SNF5]", "protein stability index": 3.08}
{"Seq": "NNSSSGMNNASAGLFGS [YGL172W/NUP49]", "protein stability index": 3.29}
{"Seq": "NACAKYGRDDMENIKKS [ISW2]", "protein stability index": 3.08}
{"Seq": "LRNLHMKRMVAQWERSK [SNF12]", "protein stability index": 2.89}

So what's the measured protein stability index for this one? IKKYASVVRVLVHTQIR [RPL3]
1.62

Which measured protein stability index value corresponds to GNENFEDFDVEHFSDEE [RPO26] ?
2.95

Could you share which protein stability index value was measured for VYDFYGRHVATCSSDQH [YGL100W/SEH1] ?
2.43

Look at this sequence and give its reported protein stability index. HKMSMMAHRVKVIPYST [RPO21]
2.82

Need protein stability index of KINPFGFEQVKIALGSP [RRI2] , thanks.
2.77

Which protein stability index reading was recorded for the sequence LQQQTPVTIWLFEQIGI [SME1] ?
1.64

Value lookup for protein stability index; key = GFNSIWKIPQNDIPQTE [SSN2]
3.18
